// NB: equality with 4 counts as label 0; only logP strictly below is label 1

Worked examples, 5 compounds total:
* CCOC(=O)CCC(=O)OCC | label 1
* Clc1cc2c(Cl)cccc2c(Cl)c1Cl | label 0
* CN(C)c1ccc(N=c2snc3sc(S(N)(=O)=O)nn23)cc1 | label 1
* Cc1ccc2ccc3ccccc3c2c1 | label 0
* COC(=O)c1c[nH]c2ccccc12 | label 1

Then this compound:
Query :: Please check: logP for CC(CCC(=O)O)C1CCC2C3C(O)C(O)C4CC(O)CCC4(C)C3CCC12C (configuration not stated) , strictly under 4 or not?
Result :: label 1

* * *

condition-info: 25.0 °C
Measured log10 OH rate constant (cm³/molecule/s), listed per entry.
# respond with the number and nothing more

Look over these answered cases.
- OCC(F)(F)C(F)(F)F: -13
- CCOCC=O: -10.8
- CCCCOCC=O: -10.7

Query :: Entry c1ccc2c(c1)Oc1ccccc1O2 has what log10 OH rate constant (cm³/molecule/s)?
Result :: -10.9

Query :: Entry FC(F)OC(F)F has what log10 OH rate constant (cm³/molecule/s)?
Result :: -14.5

Query :: Entry FC(F)=C(F)C(F)(F)F has what log10 OH rate constant (cm³/molecule/s)?
Result :: -11.7

Query :: Entry COC(F)(F)C(F)(F)C(F)(F)F has what log10 OH rate constant (cm³/molecule/s)?
Result :: -13.9

Query :: Entry C[Si]1(C)O[Si](C)(C)O[Si](C)(C)O[Si](C)(C)O[Si](C)(C)O1 has what log10 OH rate constant (cm³/molecule/s)?
Result :: -11.8

* * *

condition-info: 23 °C
readout-label: solubility

• CCOP(=S)(Oc1ccc([N+](=O)[O-])cc1)c1ccccc1 (centres undefined) = 9.62 µM
• C[Si]1(C)O[Si](C)(C)O[Si](C)(C)O[Si](C)(C)O[Si](C)(C)O1 = 0.0458 µM
• Clc1ccc(Cl)c(-c2ccc(Cl)c(Cl)c2)c1 = 0.136 µM
• CCC(C#N)CC#N (centres undefined) = 203000 µM
• C[Si]1(C)O[Si](C)(C)O[Si](C)(C)O[Si](C)(C)O[Si](C)(C)O[Si](C)(C)O1 = 0.0115 µM

Query :: Entry NC(=O)c1c(Cl)cccc1Cl has what solubility?
Result :: 14400 µM

Query :: Entry CC1=CCC(=C(C)C)CC1 has what solubility?
Result :: 69.7 µM

Query :: Entry CCOc1cc(OP(=S)(OC)OC)nc(CC)n1 has what solubility?
Result :: 137 µM

Query :: Entry CN(N=O)C(N)=O has what solubility?
Result :: 140000 µM

* * *

Measured log10 OH rate constant (cm³/molecule/s), listed per entry.
condition-info: 25.0 °C
# respond with the number and nothing more

Look over these answered cases.
- COC(=O)CCCC(=O)OC: -11.5
- OCC(F)(F)C(F)(F)C(F)(F)F: -13
- C1CC2CCCC2C1 (centres undefined): -11
- CCNc1nc(Cl)nc(NC(C)(C)C)n1: -11

Query :: Entry COC(F)(F)C(F)(F)F has what log10 OH rate constant (cm³/molecule/s)?
Result :: -13.9

Query :: Entry FC(F)(F)I has what log10 OH rate constant (cm³/molecule/s)?
Result :: -13.3

* * *

condition-info: 25 °C
readout-label: log10(solubility) (log10 of the value in mM)
Please keep in mind that the values are log10 of solubility expressed in mM.

- CCCCC(=O)O[C@]1(C(=O)CO)[C@@H](C)C[C@H]2[C@@H]3CCC4=CC(=O)C=C[C@]4(C)[C@@]3(F)[C@@H](O)C[C@@]21C: -1.71
- Cc1ccccc1C: 0.23
- COc1c(Cl)ccc(Cl)c1C(=O)O: 1.44
- CC(Br)CBr (stereo not drawn): 0.85
- Cl[C@H]1[C@H](Cl)[C@@H](Cl)[C@@H](Cl)[C@H](Cl)[C@H]1Cl (racemic): -2.03
- C#CCN1C(=O)COc2cc(F)c(N3C(=O)C4=C(CCCC4)C3=O)cc21: -2.30

Query :: Entry CCCOC(=O)COc1ccc(Cl)cc1Cl has what log10(solubility)?
Result :: -1.25

Query :: Entry Clc1ccccc1-c1ccccc1Cl has what log10(solubility)?
Result :: -2.08

Query :: Entry COc1ccc(C(c2ccc(OC)cc2)C(Cl)(Cl)Cl)cc1 has what log10(solubility)?
Result :: -3.54

Query :: Entry CCCCC(CC)COC(=O)c1ccccc1C(=O)OCC(CC)CCCC (stereo not drawn) has what log10(solubility)?
Result :: -3.97

Query :: Entry CC1CO1 (stereo not drawn) has what log10(solubility)?
Result :: 4.01

Query :: Entry CCCCCCCCOP(=O)(Oc1ccccc1)Oc1ccccc1 has what log10(solubility)?
Result :: -3.41

Query :: Entry O=C(O)CCC1CCCC1 has what log10(solubility)?
Result :: 1.23
